Here, each record is paired with measured Surface Tension data.
# protocol: Surface tension, Kruss surface tensiometer
# Type: physicochemical
# testContext: 0.1 wt % in 0.005M NaCl water

smilesStructure	Surface Tension
C[Si](C)(C)C[Si](C)(C)CCCOCCOCCOCCOCCO	22.5 mN/m
C[Si](C)(C)CC[Si](C)(C)CCCOCCOCCOCCOCCOCCOCCOCCOCCOCCOCCOCCO	26.7 mN/m
C[Si](C)(C)C[Si](C)(C)CCCOCCOCCOCCOCCOCCOCCOCCOCCOCCOCCOCCO	27.7 mN/m
C[Si](C)(C)CC[Si](C)(C)CCCOCCOCCOCCOCCO	22.7 mN/m
